- target_or_system: full length recombinant Pim-1 (Homo sapiens (Human), UniProt P11309)
- Sequence (P11309 whole entry): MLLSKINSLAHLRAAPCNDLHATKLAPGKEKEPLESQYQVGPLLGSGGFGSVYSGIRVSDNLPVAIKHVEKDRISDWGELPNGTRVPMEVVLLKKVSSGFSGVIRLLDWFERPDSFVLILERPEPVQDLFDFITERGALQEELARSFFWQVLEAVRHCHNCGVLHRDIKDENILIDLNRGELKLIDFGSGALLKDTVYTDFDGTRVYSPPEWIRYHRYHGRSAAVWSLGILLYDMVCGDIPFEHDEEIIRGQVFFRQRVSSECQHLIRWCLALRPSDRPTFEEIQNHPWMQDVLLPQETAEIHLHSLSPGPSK
- test_protocol: Pim enzyme assay (HTRF, phosphorylation of biotinylated-BAD (S112) peptide), Pim-1
- Type: biochemical
- run_conditions: Pim-1 enzyme assay; read-out: Pim_1_IC50
pIC50: −log10 of the molar value.
metric_name: pIC50

P. COc1cncc(-c2c[nH]c3ccc(-c4nnc(N)s4)cc23)n1
Q. COC[C@H]1CCCN1c1ccnc(-c2c[nH]c3ccc(-c4nnc(N)o4)cc23)n1
R. Nc1nnc(-c2ccc3[nH]cc(-c4cnc(N5CCCC5=O)cn4)c3c2)s1
Query: Which order do these items take when sorted by rising pIC50? List them. Present the labels in the sequence the task asks for.
Reply: R, P, Q
(R: 6.02, P: 7.42, Q: 7.86)

1. CCOc1cnc(-c2c[nH]c3ccc(-c4nnc(N)o4)cc23)cn1
2. Nc1cccc(-c2c[nH]c3ccc(-c4nnc(N)s4)cc23)n1
Query: // pick larger pIC50 from pair: 1 vs 2 Answer with the label corresponding to your selection.
Reply: 1
(1: 6.55, 2: 6.15)

====

- target_or_system: full length recombinant Pim-1 (Homo sapiens (Human))
- test_protocol: Pim enzyme assay (HTRF, phosphorylation of biotinylated-BAD (S112) peptide), Pim-1
- Format: biochemical
pIC50: −log10 of the molar value.
metric_name: pIC50

Query: Would you kindly share the measured pIC50 for CNc1nnc(-c2ccc3[nH]cc(-c4cncc(N(C)C)n4)c3c2)s1 [Example 231] ?
Reply: 7.42

1. CC(C)Nc1nnc(-c2ccc3[nH]cc(-c4nccc(C(N)=O)n4)c3c2)o1 [Example 261]
2. CC(C)Cc1nnc(-c2ccc3[nH]cc(-c4cncc(C5CC5)n4)c3c2)o1 [Example 265]
Query: // pick larger pIC50 from pair: 1 vs 2 Answer with the label corresponding to your selection.
Reply: 2

====

- target_or_system: full length recombinant Pim-2 (Homo sapiens (Human))
- test_protocol: Pim enzyme assay (HTRF, phosphorylation of biotinylated-BAD (S112) peptide), Pim-2
- Assay type: biochemical
- run_conditions: Pim-2 enzyme assay; read-out: Pim2_IC50
pIC50: −log10 of the molar value.
metric_name: pIC50

A selection of reference data follows.
Query: Would you kindly share the measured pIC50 for CC(C)Nc1cncc(-c2c[nH]c3ccc(-c4noc(N)n4)cc23)n1 [Example 70] ?
Reply: 6.44

Query: Would you kindly share the measured pIC50 for CC1CCN(c2cncc(-c3c[nH]c4ccc(-c5nnc(N)s5)cc34)n2)CC1 [Example 162] ?
Reply: 7.31

Query: Would you kindly share the measured pIC50 for Cc1nnc2n1CCN(c1cccc(-c3c[nH]c4ccc(-c5nnc(N)s5)cc34)n1)C2 [Example 25, 2,2,2-trifluoroacetate] ?
Reply: 7.05

I. Nc1nnc(-c2ccc3[nH]cc(-c4csc(-n5ccccc5=O)n4)c3c2)s1 [Example 177]
II. Nc1nnc(-c2ccc3[nH]cc(-c4cncc(-c5cccc(Cl)c5)n4)c3c2)o1 [Example 120]
III. CC(C)Nc1nnc(-c2ccc3[nH]cc(-c4nccc(C5CC5)n4)c3c2)o1 [Example 264]
Query: Arrange the 3 compounds from largest to smallest pIC50. Present the labels in the sequence the task asks for.
Reply: III, II, I

====

- target_or_system: full length recombinant Pim-2 (Homo sapiens (Human))
- test_protocol: Pim enzyme assay (HTRF, phosphorylation of biotinylated-BAD (S112) peptide), Pim-2
- Type: biochemical
- run_conditions: Pim-2 enzyme assay; read-out: Pim2_IC50
pIC50: −log10 of the molar value.
metric_name: pIC50

Query: Would you kindly share the measured pIC50 for Nc1nnc(-c2ccc3[nH]cc(-c4cncc(N5CCOCC5)n4)c3c2)s1 [Example 156] ?
Reply: 7.91

I. Nc1nnc(-c2ccc3[nH]cc(-c4cnc(OC5CCCC5)cn4)c3c2)s1 [Example 195]
II. CC(C)Nc1cncc(-c2c[nH]c3ccc(-c4nnc(N)o4)cc23)n1 [Example 101]
III. CNc1nnc(-c2ccc3[nH]cc(-c4cn[nH]c4)c3c2)s1 [Example 218]
IV. Nc1nnc(-c2ccc3[nH]cc(-c4cccc(N5CCCCC5)n4)c3c2)s1 [Example 172]
Query: Arrange the 4 molecules from largest to smallest pIC50. Present the labels in the sequence the task asks for.
Reply: II, IV, III, I
(II: 8.40, IV: 7.16, III: 6.21, I: 5.87)

a. FC(F)(F)CNc1nnc(-c2ccc3[nH]cc(-c4nccc(C5CC5)n4)c3c2)o1 [Example 53]
b. C[C@H]1CCCCN1c1cccc(-c2c[nH]c3ccc(-c4nnc(N)s4)cc23)n1 (stereo in doubt) [Example 167]
c. COc1nc(-c2c[nH]c3ccc(-c4nnc(NC(C)(C)C)o4)cc23)ncc1F [Example 55, 2,2,2-trifluoroacetate]
Query: Put the items in order so that reported pIC50 rises from first to last. Present the labels in the sequence the task asks for.
Reply: b, c, a

====

- target_or_system: full length recombinant Pim-1 (Homo sapiens (Human))
- test_protocol: Pim enzyme assay (HTRF, phosphorylation of biotinylated-BAD (S112) peptide), Pim-1
- Type: biochemical
- run_conditions: Pim-1 enzyme assay; read-out: Pim_1_IC50
metric_name: IC50 (µM)

A selection of reference data follows.
Query: What measured IC50 is associated with `CCN(CC)c1cncc(-c2c[nH]c3ccc(-c4nnc(N)s4)cc23)n1` on full length recombinant Pim-1 (Homo sapiens (Human))?
Reply: 0.002

Query: What measured IC50 is associated with `CNc1nnc(-c2ccc3[nH]cc(-c4nccc(-c5ccccc5)n4)c3c2)s1` on full length recombinant Pim-1 (Homo sapiens (Human))?
Reply: 0.0882

Query: What measured IC50 is associated with `Brc1nnc(-c2ccc3[nH]cc(-c4cccc(N5CCOCC5)n4)c3c2)s1` on full length recombinant Pim-1 (Homo sapiens (Human))?
Reply: 1.31

Query: What measured IC50 is associated with `CC(C)Nc1ccnc(-c2c[nH]c3ccc(-c4nnc(N)o4)cc23)n1` on full length recombinant Pim-1 (Homo sapiens (Human))?
Reply: 0.0069

Query: What measured IC50 is associated with CN(C)[C@H]1CCCN(c2ccnc(-c3c[nH]c4ccc(-c5nnc(N)o5)cc34)n2)C1 (stereo in doubt) on full length recombinant Pim-1 (Homo sapiens (Human))?
Reply: 0.00598

Query: What measured IC50 is associated with CC(C)Oc1cccc(-c2c[nH]c3ccc(-c4nnc(N[C@@H]5CCCNC5)s4)cc23)n1 [Example 35, 2,2,2-trifluoroacetate] on full length recombinant Pim-1 (Homo sapiens (Human))?
Reply: 0.00923

P. Cc1ccn(-c2cccc(-c3c[nH]c4ccc(-c5nnc(N)s5)cc34)n2)n1
Q. CC(C)Nc1nnc(-c2ccc3[nH]cc(-c4nccc(C(F)(F)F)n4)c3c2)o1
Query: // pick larger IC50 from pair: P vs Q Answer with the label corresponding to your selection.
Reply: P
(P: 0.077 µM, Q: 0.0137 µM)

====

- target_or_system: full length recombinant Pim-2 (Homo sapiens (Human), UniProt Q9P1W9)
- Sequence (Q9P1W9 whole entry): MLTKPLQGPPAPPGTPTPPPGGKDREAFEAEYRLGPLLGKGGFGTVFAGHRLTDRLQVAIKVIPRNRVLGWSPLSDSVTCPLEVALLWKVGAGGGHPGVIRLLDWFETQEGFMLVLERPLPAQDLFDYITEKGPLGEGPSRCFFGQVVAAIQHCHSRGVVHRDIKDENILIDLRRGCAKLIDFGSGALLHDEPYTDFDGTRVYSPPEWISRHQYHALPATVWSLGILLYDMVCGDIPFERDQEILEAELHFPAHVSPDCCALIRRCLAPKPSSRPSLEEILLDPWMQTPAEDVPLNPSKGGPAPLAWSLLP
- test_protocol: Pim enzyme assay (HTRF, phosphorylation of biotinylated-BAD (S112) peptide), Pim-2
- Format: biochemical
- run_conditions: Pim-2 enzyme assay; read-out: Pim2_IC50
metric_name: IC50 (µM)

A selection of reference data follows.
Query: Would you kindly share the measured IC50 for `Nc1nnc(-c2ccc3[nH]cc(-c4ccccc4F)c3c2)o1` ?
Reply: 0.14

Query: Would you kindly share the measured IC50 for `Nc1nnc(-c2ccc3[nH]cc(-c4nccc(Nc5ccccc5)n4)c3c2)o1` ?
Reply: 0.0031

Query: Would you kindly share the measured IC50 for `Nc1nnc(-c2ccc3[nH]cc(-c4cnn(CCN5CCOCC5)c4)c3c2)o1` ?
Reply: 0.273

Query: Would you kindly share the measured IC50 for `CNc1nnc(-c2ccc3[nH]cc(-c4c(F)cccc4F)c3c2)s1` ?
Reply: 1.22

Query: Would you kindly share the measured IC50 for `CC(C)Nc1nnc(-c2ccc3[nH]cc(-c4nccc(C(F)(F)F)n4)c3c2)o1` ?
Reply: 0.0252

Query: Would you kindly share the measured IC50 for `Nc1nnc(-c2ccc3[nH]cc(-c4cncc(Oc5ccccc5)n4)c3c2)o1` ?
Reply: 0.0466

Query: Would you kindly share the measured IC50 for `CC1CCN(c2cccc(-c3c[nH]c4ccc(-c5nnc(N)s5)cc34)n2)CC1` ?
Reply: 0.117

Query: Would you kindly share the measured IC50 for CC(Nc1nnc(-c2ccc3[nH]cc(-c4cnccn4)c3c2)o1)c1ccccc1 (centres unmarked) ?
Reply: 0.559

Query: Would you kindly share the measured IC50 for C[C@H]1CCCCN1c1nc(-c2c[nH]c3ccc(-c4nnc(N)s4)cc23)cs1 (stereo in doubt) ?
Reply: 0.602

Query: Would you kindly share the measured IC50 for Fc1ccccc1-c1c[nH]c2ccc(-c3nnc(N[C@H]4CCCNC4)s3)cc12 (stereo in doubt) ?
Reply: 0.106

A. CNc1nnc(-c2ccc3[nH]cc(-c4ccnc(N5CCOCC5)n4)c3c2)s1
B. CCOc1cncc(-c2c[nH]c3ccc(-c4nnc(N)s4)cc23)n1
C. C[C@H]1COCCN1c1ccnc(-c2c[nH]c3ccc(-c4nnc(N)o4)cc23)n1
D. CC1CCCCN1c1ccnc(-c2c[nH]c3ccc(-c4nnc(N)o4)cc23)n1 (centres unmarked)
Query: Arrange the 4 compounds from largest to smallest IC50. Present the labels in the sequence the task asks for.
Reply: A, B, D, C
(A: 0.0824 µM, B: 0.0278 µM, D: 0.00219 µM, C: 0.00107 µM)
